Tested on: D-hydantoinase
Assay: Substrate selection of D-hydantoinase
Assay type: biochemical, Bacillus circulans
Settings: substrate 10 mM, 50° C., 10 min
Catalogue of Specific activity readings, one per entry.
Express the result in unit/mg but write the number alone.

O=C1CCNC(=O)N1 [Dihydrouracil]: 54.29
O=C1CNC(=O)N1: 41.43
CSCCC1NC(=O)NC1=O (stereo not shown) [5-[2-(Methylthio)ethyl]-hydantoin, 5-[2-(methylthio)ethyl]hydantoin]: 21.48

Please turn your attention to the following entry.
Returns the measured Specific activity for the input molecule. Input: O=C1NC(=O)C(c2ccc(O)cc2)N1 (racemic) [D,L-p-Hydroxyphenylhydantoin, D,L-p-hydroxyphenylhydantoin]
47.43
